Tested on: Blood
Assay: Drug level in monkey blood at 4.3 mg/kg, iv
Type: ADME, organism-based, Macaca mulatta
Set-up: dose 4.3 mg/kg, route intravenous
Settings: rhesus monkey, in vivo, read-out: Drug uptake
endpoint: concentration (nM)

smiles_input	observed
CCn1c(-c2nonc2N)nc2c(C#CC(C)(C)O)ncc(OC[C@H]3CCCNC3)c21	3000

---

Molecular target: RAC-alpha serine/threonine-protein kinase (Homo sapiens, UniProt P31749)
Sequence (P31749 whole entry): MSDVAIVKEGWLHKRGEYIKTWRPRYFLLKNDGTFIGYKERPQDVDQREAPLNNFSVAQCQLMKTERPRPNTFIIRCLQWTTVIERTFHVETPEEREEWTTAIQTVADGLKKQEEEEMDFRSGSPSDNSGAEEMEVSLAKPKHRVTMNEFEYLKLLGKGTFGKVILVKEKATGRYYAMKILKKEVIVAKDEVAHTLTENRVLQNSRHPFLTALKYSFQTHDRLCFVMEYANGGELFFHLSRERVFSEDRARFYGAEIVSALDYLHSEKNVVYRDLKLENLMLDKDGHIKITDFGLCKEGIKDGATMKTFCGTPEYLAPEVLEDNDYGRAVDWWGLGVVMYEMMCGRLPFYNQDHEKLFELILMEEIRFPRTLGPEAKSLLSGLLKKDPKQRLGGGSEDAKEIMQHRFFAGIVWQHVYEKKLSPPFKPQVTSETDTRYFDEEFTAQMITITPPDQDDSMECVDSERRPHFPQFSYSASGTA
Binary label based on IC50 with cut-off 1000 nM: below gives 1 (yes), not below gives 0 (no).

compound	assay_system	label_value
CCn1c(-c2nonc2N)nc2c(-c3cc[nH]c3)ncc(OCCCN)c21	RAC-alpha serine/threonine-protein kinase (Homo sapiens, UniProt P31749)	0 (no)
CCn1c(-c2nonc2N)nc2c(C#CCCO)ncc(OCCCN)c21	RAC-alpha serine/threonine-protein kinase (Homo sapiens, UniProt P31749)	0 (no)
CCn1c(-c2nonc2N)nc2c(C#CCO)ncc(OCCCN)c21	RAC-alpha serine/threonine-protein kinase (Homo sapiens, UniProt P31749)	0 (no)
CCn1c(-c2nonc2N)nc2c(C#CC(C)(C)O)ncc(OCCCN)c21	RAC-alpha serine/threonine-protein kinase (Homo sapiens, UniProt P31749)	0 (no)
CCn1c(-c2nonc2N)nc2c(C#CC(C)(C)O)ncc(OCCN)c21	RAC-alpha serine/threonine-protein kinase (Homo sapiens, UniProt P31749)	1 (yes)
CCn1c(-c2nonc2N)nc2c(-c3ccoc3)ncc(OCCCN)c21	RAC-alpha serine/threonine-protein kinase (Homo sapiens, UniProt P31749)	0 (no)
CCn1c(-c2nonc2N)nc2c(-c3ccc[nH]3)ncc(OCCCN)c21	RAC-alpha serine/threonine-protein kinase (Homo sapiens, UniProt P31749)	0 (no)
CCn1c(-c2nonc2N)nc2c(C#CC(C)(C)O)ncc(OCCCNCCc3ccc(OC)cc3)c21	RAC-alpha serine/threonine-protein kinase (Homo sapiens, UniProt P31749)	1 (yes)
CCn1c(-c2nonc2N)nc2c(C#CC(C)(C)O)ncc(OCC3CCNCC3)c21 [GSK-554170A]	RAC-alpha serine/threonine-protein kinase (Homo sapiens, UniProt P31749)	0 (no)
CCn1c(-c2nonc2N)nc2c(C#CC3CC3)ncc(OCCCN)c21	RAC-alpha serine/threonine-protein kinase (Homo sapiens, UniProt P31749)	0 (no)
CCn1c(-c2nonc2N)nc2c(-c3ccccc3)ncc(OCCCN)c21	RAC-alpha serine/threonine-protein kinase (Homo sapiens, UniProt P31749)	0 (no)
CCn1c(-c2nonc2N)nc2c(C#CC(C)(C)O)ncc(OCC[C@@H](N)Cc3ccccc3)c21	RAC-alpha serine/threonine-protein kinase (Homo sapiens, UniProt P31749)	1 (yes)
CCn1c(-c2nonc2N)nc2c(C#CC(C)(C)O)ncc(OCCCNC[C@H](O)CO)c21	RAC-alpha serine/threonine-protein kinase (Homo sapiens, UniProt P31749)	0 (no)
CCn1c(-c2nonc2N)nc2c(-c3cn[nH]c3)ncc(OCCCN)c21	RAC-alpha serine/threonine-protein kinase (Homo sapiens, UniProt P31749)	0 (no)

---

Experiment: Solubility at pH 4 sodium acetate buffer in 5% mannitol
Type: physicochemical

smiles_input	solubility
CCn1c(-c2nonc2N)nc2c(C#CC(C)(C)O)ncc(OC[C@H]3CCCNC3)c21	> 5000 µg/mL

---

Assay: Half life in dog at 4.2 mg/kg, iv
Format: ADME, organism-based, Canis lupus familiaris
Set-up: dose 4.2 mg/kg, route intravenous
Conditions: in vivo

compound	half-life [h]
CCn1c(-c2nonc2N)nc2c(C#CC(C)(C)O)ncc(OC[C@H]3CCCNC3)c21 [GSK-690693]	3.5
